Molecular target: Matrix metalloproteinase-9 (Homo sapiens, UniProt P14780)
Sequence (P14780 whole entry): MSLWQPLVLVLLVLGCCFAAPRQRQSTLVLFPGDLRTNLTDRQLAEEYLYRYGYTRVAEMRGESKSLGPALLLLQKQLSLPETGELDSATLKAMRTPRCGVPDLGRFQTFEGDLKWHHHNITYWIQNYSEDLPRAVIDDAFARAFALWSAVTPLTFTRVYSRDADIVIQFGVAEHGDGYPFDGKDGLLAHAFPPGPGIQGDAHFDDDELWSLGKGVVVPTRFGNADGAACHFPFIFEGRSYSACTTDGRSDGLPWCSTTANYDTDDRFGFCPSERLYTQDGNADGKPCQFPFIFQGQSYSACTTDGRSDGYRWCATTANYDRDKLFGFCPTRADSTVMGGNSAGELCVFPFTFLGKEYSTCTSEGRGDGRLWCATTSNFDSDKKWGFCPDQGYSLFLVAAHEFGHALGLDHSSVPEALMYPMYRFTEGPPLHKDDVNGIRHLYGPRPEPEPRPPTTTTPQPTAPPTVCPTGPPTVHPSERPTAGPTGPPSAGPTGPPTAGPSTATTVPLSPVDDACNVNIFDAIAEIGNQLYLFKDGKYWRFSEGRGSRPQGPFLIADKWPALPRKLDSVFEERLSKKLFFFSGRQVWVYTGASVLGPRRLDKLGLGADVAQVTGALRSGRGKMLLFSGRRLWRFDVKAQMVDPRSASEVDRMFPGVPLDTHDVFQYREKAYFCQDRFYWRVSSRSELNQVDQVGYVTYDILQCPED
measured_metric: IC50 (µM)

input_smiles=NCc1nc2ccc(NCc3ccccc3OCc3ccccc3)cc2[nH]1 target_or_test_system="Matrix metalloproteinase-9 (Homo sapiens, UniProt P14780)" measured_metric=IC50 test_value=13

---

Listed compounds paired with reported pIC50
Biological target: Bcl-2-like protein 1 (Homo sapiens, UniProt Q07817)
Sequence (Q07817 whole entry): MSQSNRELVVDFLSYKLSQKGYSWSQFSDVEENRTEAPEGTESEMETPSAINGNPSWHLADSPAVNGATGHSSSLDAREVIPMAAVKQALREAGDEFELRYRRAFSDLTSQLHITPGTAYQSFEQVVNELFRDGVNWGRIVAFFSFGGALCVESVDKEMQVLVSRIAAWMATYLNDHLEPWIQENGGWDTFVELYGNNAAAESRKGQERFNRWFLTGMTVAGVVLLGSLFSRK
Assay: Inhibitory concentration against B-Cell Lymphoma xL (Bcl-xL) Bak-peptide binding region
pIC50: −log10 of the molar value.
measured_metric: pIC50

input_smiles=CN(C)CC/C=C(\c1ccc(Cl)cc1)c1ccc(CCCc2ccc(/C(=C\CCN(C)C)c3ccc(Cl)cc3)cc2)cc1 measured_metric=pIC50 test_value=5.00
input_smiles=CN(C)CCC=C(c1ccc(Cl)cc1)c1ccc(Cl)cc1 measured_metric=pIC50 test_value=3.74
